targetOfAssay: Marasmius oreades lectin (MOA, cMOA) (Marasmius oreades, UniProt Q8X123)
test: Isothermal titration calorimetry, MOA of Example 1 (proteolyzed, clipped form, cMOA)
Type: binding
conditionDescription: isothermal titration calorimetry
// classify: if (−ΔH < 10 kcal/mol) Met else Not met

{"columns": ["compound", "targetOfAssay", "qualitativeLabel"],
 "data": [
  ["CC(=O)N[C@H]1C(O)O[C@H](CO)[C@@H](O[C@@H]2O[C@H](CO)[C@H](O)[C@H](O)[C@H]2O)[C@@H]1O (stereo partly drawn)", "Marasmius oreades lectin (MOA, cMOA) (Marasmius oreades, UniProt Q8X123)", "Not met"],
  ["OC[C@H]1O[C@@H](OC[C@H]2OC(O)[C@H](O)[C@@H](O)[C@H]2O)[C@H](O)[C@@H](O)[C@H]1O (stereo partly drawn)", "Marasmius oreades lectin (MOA, cMOA) (Marasmius oreades, UniProt Q8X123)", "Met"],
  ["OC[C@H]1O[C@H](O[C@H]2[C@@H](O)[C@@H](CO)OC(O)[C@@H]2O)[C@H](O)[C@@H](O)[C@H]1O (stereo partly drawn)", "Marasmius oreades lectin (MOA, cMOA) (Marasmius oreades, UniProt Q8X123)", "Not met"]
]}

*Q* Please let me know if `CO[C@@H]1O[C@H](CO)[C@@H](O)[C@H](O[C@@H]2O[C@H](CO)[C@H](O)[C@H](O)[C@H]2O)[C@H]1NC(C)=O` shows −ΔH below 10 kcal/mol.
*A* Met

*Q* Is −ΔH strictly under 10 kcal/mol for the entry CC(=O)N[C@H]1C(O)O[C@H](CO)[C@@H](O[C@@H]2O[C@H](CO)[C@H](O)[C@H](O[C@H]3O[C@H](CO)[C@H](O)[C@H](O)[C@H]3O)[C@H]2O)[C@@H]1O (stereo partly drawn) ?
*A* Not met

*Q* hey, is −ΔH for C[C@@H]1O[C@@H](O[C@H]2C(O)O[C@H](CO)[C@H](O)[C@@H]2O[C@H]2O[C@H](CO)[C@H](O)[C@H](O)[C@H]2O)[C@@H](O)[C@H](O)[C@@H]1O (stereo partly drawn) [B trisaccharide, Galα1,3[Fucα1,2]Gal] lower than 10 kcal/mol or not?
*A* Not met

*Q* Would you kindly verify if −ΔH of CO[C@H]1O[C@H](CO)[C@H](O)[C@H](O)[C@H]1O [Me-α-Gal, Methyl α-galactopyranoside] is strictly less than 10 kcal/mol?
*A* Met

*Q* Is it true that −ΔH reported for OC[C@H]1O[C@@H](O[C@H]2[C@H](O)[C@@H](O)C(O)O[C@@H]2CO)[C@H](O)[C@@H](O)[C@H]1O (stereo partly drawn) is less than 10 kcal/mol?
*A* Met

###

targetOfAssay: Marasmius oreades lectin (MOA, cMOA) (Marasmius oreades)
Sequence (Q8X123 1-293): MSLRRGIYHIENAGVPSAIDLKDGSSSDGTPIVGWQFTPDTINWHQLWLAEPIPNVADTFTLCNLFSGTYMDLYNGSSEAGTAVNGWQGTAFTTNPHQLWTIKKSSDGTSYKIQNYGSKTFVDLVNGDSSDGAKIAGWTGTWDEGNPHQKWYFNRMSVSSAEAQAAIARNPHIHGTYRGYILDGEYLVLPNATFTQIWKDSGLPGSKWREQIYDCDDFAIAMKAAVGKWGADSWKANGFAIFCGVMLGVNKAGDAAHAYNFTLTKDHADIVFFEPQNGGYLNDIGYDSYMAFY
I'd appreciate it if you marked entries true (1) when Kd is lower than 2 mM and false (0) when it is not.

Example entries begin here.
{"columns": ["compound", "qualitativeLabel"],
 "data": [
  ["C[C@@H]1O[C@@H](O[C@H]2C(O)O[C@H](CO)[C@H](O)[C@@H]2O[C@H]2O[C@H](CO)[C@H](O)[C@H](O)[C@H]2O)[C@@H](O)[C@H](O)[C@@H]1O (stereo partly shown) [B trisaccharide, Galα1,3[Fucα1,2]Gal]", "true (1)"],
  ["CO[C@H]1O[C@H](CO)[C@H](O)[C@H](O)[C@H]1O [Me-α-Gal, Methyl α-galactopyranoside]", "false (0)"],
  ["CC(=O)N[C@H]1C(O)O[C@H](CO)[C@@H](O[C@@H]2O[C@H](CO)[C@H](O)[C@H](O[C@H]3O[C@H](CO)[C@H](O)[C@H](O)[C@H]3O)[C@H]2O)[C@@H]1O (stereo partly shown) [Linear B2 trisacc., Galα1,3Galβ1,4GlcNAc]", "true (1)"]
]}

*Q* hey, is Kd for OCC1OC(OC2C(O)OC(CO)C(O)C2O)C(O)C(O)C1O (stereo not drawn) [Galβ1,2Gal, Ga1α1,2Ga1] lower than 2 mM or not?
*A* false (0)

*Q* Report whether reported Kd is lower than 2 mM (strictly) for CO[C@@H]1O[C@H](CO)[C@@H](O)[C@H](O[C@@H]2O[C@H](CO)[C@H](O)[C@H](O)[C@H]2O)[C@H]1NC(C)=O [LactoNbioseβMe]
*A* false (0)

*Q* For this compound, is Kd lower than 2 mM? OC[C@H]1O[C@H](O[C@H]2[C@@H](O)[C@@H](CO)OC(O)[C@@H]2O)[C@H](O)[C@@H](O)[C@H]1O (stereo partly shown) [Galα1,3Gal]
*A* true (1)

*Q* hey, is Kd for CC(=O)N[C@H]1C(O)O[C@H](CO)[C@@H](O[C@@H]2O[C@H](CO)[C@H](O)[C@H](O)[C@H]2O)[C@@H]1O (stereo partly shown) [LacNAc, N-acetyllactosamine] lower than 2 mM or not?
*A* false (0)

*Q* Determine if CC1OC(OC2C(OC3C(CO)OC(O)C(O)C3O)OC(CO)C(O)C2O)C(O)C(O)C1O [2′ Fucosyllactose, L-Fucα1,2Ga1β1,4G1c] shows Kd strictly lower than 2 mM.
*A* true (1)

*Q* Hello, is Kd of the following compound strictly smaller than 2 mM? OC[C@H]1O[C@@H](O[C@H]2[C@H](O)[C@@H](O)C(O)O[C@@H]2CO)[C@H](O)[C@@H](O)[C@H]1O (stereo partly shown) [Lactose]
*A* false (0)

*Q* Does this compound meet the criterion Kd < 2 mM? OCC1OC(OC2C(CO)OC(O)C(O)C2O)C(O)C(O)C1O (stereo not drawn) [Galβ1,4Gal, G1α1,4Ga1]
*A* false (0)
